tested on: Lu1; assay: Cytotoxicity against human Lu1 cells after 72 hrs by SRB assay; format: functional, cell-based; conditions: Lu1, 72 h
Where a name gives a salt, the structure may show the parent alone.
// reported IC50 per item
Give the number; µM is assumed, so skip it.

{"Compound": "CCC1=C[C@@H]2C[C@](C(=O)OC)(c3c(OC)cc(N)cc3OC)c3[nH]c4ccccc4c3CC[N@@+](CC(=O)/C=C/c3ccc(O)c(OC)c3)(C1)C2", "Readout Unit": "µM", "Result Number": 79}
{"Compound": "CC[C@]1(O)C[C@@H]2C[C@](C(=O)OC)(c3cc4c(cc3OC)N(C=O)[C@H]3[C@@](O)(C(=O)OC)[C@H](OC(C)=O)[C@]5(CC)C=CCN6CC[C@]43[C@@H]65)c3[nH]c4ccccc4c3CC[N@+](CC(=O)/C=C/c3ccc(Cl)cc3)(C2)C1", "Readout Unit": "µM", "Result Number": 13.8}
{"Compound": "CC[C@]1(O)C[C@H]2CN(CCc3c([nH]c4ccccc34)[C@@](C(=O)OC)(c3cc4c(cc3OC)N(C)[C@H]3[C@@](O)(C(=O)OC)[C@H](OC(C)=O)[C@]5(CC)C=CCN6CC[C@]43[C@@H]65)C2)C1", "Readout Unit": "µM", "Result Number": 0.47}
{"Compound": "CCC1=C[C@@H]2C[C@](C(=O)OC)(c3c(OC)cc(N)cc3OC)c3[nH]c4ccccc4c3CC[N@@+](CC(=O)/C=C/c3ccc4ccccc4c3)(C1)C2", "Readout Unit": "µM", "Result Number": 8.34}
{"Compound": "CC[C@]1(O)C[C@@H]2C[C@](C(=O)OC)(c3cc4c(cc3OC)N(C)[C@H]3[C@@](O)(C(=O)OC)[C@H](OC(C)=O)[C@]5(CC)C=CCN6CC[C@]43[C@@H]65)c3[nH]c4ccccc4c3CC[N@+](CC(=O)/C=C/c3ccc(Cl)cc3)(C2)C1", "Readout Unit": "µM", "Result Number": 4.25}

For the compound CC[C@]1(O)C[C@H]2CN(CCc3c([nH]c4ccccc34)[C@@](C(=O)OC)(c3cc4c(cc3OC)N(C=O)[C@H]3[C@@](O)(C(=O)OC)[C@H](OC(C)=O)[C@]5(CC)C=CCN6CC[C@]43[C@@H]65)C2)C1 [VINCRISTINE SULFATE] , what IC50 is on record? 0.48

Same question, `CCC1=C[C@@H]2C[C@](C(=O)OC)(c3cc4c(cc3OC)N(C)[C@H]3[C@@](O)(C(=O)OC)[C@H](OC(C)=O)[C@]5(CC)C=CCN6CC[C@]43[C@@H]65)c3[nH]c4ccccc4c3CC[N@@+](CC(=O)/C=C/c3ccc(Cl)cc3)(C1)C2` this time 1.31

Same question, `CC[C@]1(O)C[C@@H]2C[C@](C(=O)OC)(c3cc4c(cc3OC)N(C=O)[C@H]3[C@@](O)(C(=O)OC)[C@H](OC(C)=O)[C@]5(CC)C=CCN6CC[C@]43[C@@H]65)c3[nH]c4ccccc4c3CC[N@+](CC(=O)/C=C/c3ccc4ccccc4c3)(C2)C1` this time 12

* * *

test system: MCF7; test: Cytotoxicity against human MCF7 cells after 72 hrs by SRB assay; assay type: functional, cell-based; conditions: MCF7, 72 h
Structures can show the parent of a compound that is named as a salt.
// reported pIC50 per item
Answer as the number alone; pIC50 is minus log10 of concentration in mol/L.

{"Compound": "CC[C@]1(O)C[C@@H]2C[C@](C(=O)OC)(c3cc4c(cc3OC)N(C)[C@H]3[C@@](O)(C(=O)OC)[C@H](OC(C)=O)[C@]5(CC)C=CCN6CC[C@]43[C@@H]65)c3[nH]c4ccccc4c3CC[N@+](CC(=O)/C=C/c3ccc(Cl)cc3)(C2)C1", "Target Under Test": "MCF7", "pIC50": 5.31}
{"Compound": "CC[C@]1(O)C[C@H]2CN(CCc3c([nH]c4ccccc34)[C@@](C(=O)OC)(c3cc4c(cc3OC)N(C=O)[C@H]3[C@@](O)(C(=O)OC)[C@H](OC(C)=O)[C@]5(CC)C=CCN6CC[C@]43[C@@H]65)C2)C1 [VINCRISTINE SULFATE]", "Target Under Test": "MCF7", "pIC50": 6.29}
{"Compound": "CCC1=C[C@@H]2C[C@](C(=O)OC)(c3cc4c(cc3OC)N(C)[C@H]3[C@@](O)(C(=O)OC)[C@H](OC(C)=O)[C@]5(CC)C=CCN6CC[C@]43[C@@H]65)c3[nH]c4ccccc4c3CC[N@@+](CC(=O)/C=C/c3ccc4ccccc4c3)(C1)C2", "Target Under Test": "MCF7", "pIC50": 5.32}

For the compound `CCC1=C[C@H]2CN(CCc3c([nH]c4ccccc34)[C@@](C(=O)OC)(c3c(OC)cc(N)cc3OC)C2)C1` , what pIC50 is on record? 4.68

Same question, `CCC1=C[C@@H]2C[C@](C(=O)OC)(c3c(OC)cc(N)cc3OC)c3[nH]c4ccccc4c3CC[N@@+](CC(=O)/C=C/c3ccc(Cl)cc3)(C1)C2` this time 4.75

Same question, `CCC1=C[C@H]2CN(CCc3c([nH]c4ccccc34)[C@@](C(=O)OC)(c3cc4c(cc3OC)N(C)[C@H]3[C@@](O)(C(=O)OC)[C@H](OC(C)=O)[C@]5(CC)C=CCN6CC[C@]43[C@@H]65)C2)C1` this time 5.33

Same question, `CC[C@]1(O)C[C@@H]2C[C@](C(=O)OC)(c3cc4c(cc3OC)N(C=O)[C@H]3[C@@](O)(C(=O)OC)[C@H](OC(C)=O)[C@]5(CC)C=CCN6CC[C@]43[C@@H]65)c3[nH]c4ccccc4c3CC[N@+](CC(=O)/C=C/c3ccc4ccccc4c3)(C2)C1` this time 4.96

Same question, `CCC1=C[C@@H]2C[C@](C(=O)OC)(c3c(OC)cc(N)cc3OC)c3[nH]c4ccccc4c3CC[N@@+](CC(=O)/C=C/c3ccc(O)c(OC)c3)(C1)C2` this time 4.02

Same question, `CC[C@]1(O)C[C@@H]2C[C@](C(=O)OC)(c3cc4c(cc3OC)N(C=O)[C@H]3[C@@](O)(C(=O)OC)[C@H](OC(C)=O)[C@]5(CC)C=CCN6CC[C@]43[C@@H]65)c3[nH]c4ccccc4c3CC[N@+](CC(=O)/C=C/c3ccc(Cl)cc3)(C2)C1` this time 4.96

Same question, `Cc1c2ccncc2c(C)c2c1[nH]c1ccccc12` this time 5.81

* * *

system: MCF7; test: Cytotoxicity against human MCF7 cells after 72 hrs by SRB assay; type: functional, cell-based; conditions: MCF7, 72 h
Experimental Endpoint: IC50 (µM)
Give the number; µM is assumed, so skip it.

Known IC50 results, listed for orientation:
{"Molecule": "CCC1=C[C@@H]2C[C@](C(=O)OC)(c3c(OC)cc(N)cc3OC)c3[nH]c4ccccc4c3CC[N@@+](CC(=O)/C=C/c3ccc4ccccc4c3)(C1)C2", "IC50 / µM": 11.9}
{"Molecule": "CC[C@]1(O)C[C@H]2CN(CCc3c([nH]c4ccccc34)[C@@](C(=O)OC)(c3cc4c(cc3OC)N(C)[C@H]3[C@@](O)(C(=O)OC)[C@H](OC(C)=O)[C@]5(CC)C=CCN6CC[C@]43[C@@H]65)C2)C1", "IC50 / µM": 0.23}

For the molecule `CC[C@]1(O)C[C@@H]2C[C@](C(=O)OC)(c3cc4c(cc3OC)N(C)[C@H]3[C@@](O)(C(=O)OC)[C@H](OC(C)=O)[C@]5(CC)C=CCN6CC[C@]43[C@@H]65)c3[nH]c4ccccc4c3CC[N@+](CC(=O)/C=C/c3ccc(O)c(OC)c3)(C2)C1` , what IC50 is on record? 12.5

* * *

tested on: HepG2; assay: Cytotoxicity against human HepG2 cells after 72 hrs by SRB assay; format: functional, cell-based; conditions: HepG2, 72 h
Experimental Endpoint: IC50 (µM)
Give the number; µM is assumed, so skip it.

For the molecule `CCC1=C[C@@H]2C[C@](C(=O)OC)(c3c(OC)cc(N)cc3OC)c3[nH]c4ccccc4c3CC[N@@+](CC(=O)/C=C/c3ccc(O)c(OC)c3)(C1)C2` , what IC50 is on record? 86.8

Same question, `CC[C@]1(O)C[C@@H]2C[C@](C(=O)OC)(c3cc4c(cc3OC)N(C)[C@H]3[C@@](O)(C(=O)OC)[C@H](OC(C)=O)[C@]5(CC)C=CCN6CC[C@]43[C@@H]65)c3[nH]c4ccccc4c3CC[N@+](CC(=O)/C=C/c3ccc(O)c(OC)c3)(C2)C1` this time 7.23

Same question, `CC[C@]1(O)C[C@@H]2C[C@](C(=O)OC)(c3cc4c(cc3OC)N(C)[C@H]3[C@@](O)(C(=O)OC)[C@H](OC(C)=O)[C@]5(CC)C=CCN6CC[C@]43[C@@H]65)c3[nH]c4ccccc4c3CC[N@+](CC(=O)/C=C/c3ccc(Cl)cc3)(C2)C1` this time 7.77

Same question, `CCC1=C[C@@H]2C[C@](C(=O)OC)(c3cc4c(cc3OC)N(C)[C@H]3[C@@](O)(C(=O)OC)[C@H](OC(C)=O)[C@]5(CC)C=CCN6CC[C@]43[C@@H]65)c3[nH]c4ccccc4c3CC[N@@+](CC(=O)/C=C/c3ccc(O)c(OC)c3)(C1)C2` this time 51.5
